# METHOD: qHTS to identify inhibitors of the type 1 interferon - major histocompatibility complex class I in skeletal muscle: Secondary screen by immunofluorescence; further: nearly all actives have a fitted effect of over 70% in size
# MEASUREMENT_CONTEXT: C25cl48 myoblasts, IFN-b induced HLA-ABC immunofluorescence, 24 h, Viability; series mostly up to 49.8 µM
Results filed as inconclusive are left out. Activity calls are given as the source filed them. The call rests on the fitted dose curve; in most records, active means well fitted inhibition curve with a large enough effect; inconclusive means small, poorly fitted or top-dose-only effect; inactive means no such curve, though single readings can be large or run the other way.
Classes used: 1 for active, -1 for inactive

| MOL | CLASS |
| --- | --- |
| CC(C)[C@]12O[C@H]1[C@@H]1O[C@@]13[C@@]1(C)CCC4=C(COC4=O)[C@@H]1C[C@@H]1O[C@@]13C2=O | -1 |
| O=C1/C(=C\c2ccccc2)C[C@@]2(O)[C@H]3Cc4ccc(O)c5c4[C@@]2(CCN3CC2CC2)[C@H]1O5 | 1 |
| C[C@@H]1O[C@@H](O[C@@H]2C=C3CC[C@@H]4[C@H](CC[C@]5(C)[C@@H](c6ccc(=O)oc6)CC[C@]45O)[C@@]3(C)CC2)[C@H](O)[C@H](O)[C@H]1O | -1 |
| COC(=O)[C@]12CCC(C)(C)C[C@H]1[C@H]1C(=O)C=C3[C@@]4(C)C=C(C#N)C(=O)C(C)(C)[C@@H]4CC[C@@]3(C)[C@]1(C)CC2 | 1 |
| CC1=C(O)C(=O)C=C2C1=CC=C1[C@@]2(C)CC[C@@]2(C)[C@@H]3C[C@](C)(C(=O)O)CC[C@]3(C)CC[C@]12C | 1 |
| CC(C)(O)/C=C\C(=O)[C@](C)(O)[C@H]1[C@H](O)C[C@]2(C)[C@@H]3CC=C4[C@@H](C=C(O)C(=O)C4(C)C)[C@]3(C)C(=O)C[C@@]12C | 1 |
| C=C(C)[C@@H]1CCC(C)=C[C@H]1c1c(O)cc(CCCCC)cc1O | 1 |
| Cc1sc2c(c1C)C(c1ccc(Cl)cc1)=N[C@@H](CC(=O)Nc1ccc(O)cc1)c1nnc(C)n1-2 | -1 |
| CC(C)[C@]12O[C@H]1[C@@H]1O[C@]13[C@]1(O[C@H]1C[C@H]1C4=C(CC[C@@]13C)C(=O)OC4)[C@@H]2O | -1 |
| CC(C)(C)c1cc(C=C(C#N)C#N)cc(C(C)(C)C)c1O | -1 |
| CN(C)c1cc2c(cc1Sc1nc3c(N)nccc3n1CCNCC(C)(C)C)OCO2 | -1 |
| CC1(C)CC[C@]2(NC(=O)C(C)(F)F)CC[C@]3(C)[C@H](C(=O)C=C4[C@@]5(C)C=C(C#N)C(=O)C(C)(C)[C@@H]5CC[C@]43C)[C@@H]2C1 | 1 |
| C[C@@H]1O[C@@H](O[C@H]2C[C@@H](O)[C@]3(CO)[C@H]4[C@H](O)C[C@]5(C)[C@@H](C6=CC(=O)OC6)CC[C@]5(O)[C@@H]4CC[C@]3(O)C2)[C@H](O)[C@H](O)[C@H]1O | -1 |
